Data origin, for the record: ChEMBL document CHEMBL2046401

- System tested: Histamine H4 receptor (Homo sapiens)
- Sequence (Q9H3N8 whole entry): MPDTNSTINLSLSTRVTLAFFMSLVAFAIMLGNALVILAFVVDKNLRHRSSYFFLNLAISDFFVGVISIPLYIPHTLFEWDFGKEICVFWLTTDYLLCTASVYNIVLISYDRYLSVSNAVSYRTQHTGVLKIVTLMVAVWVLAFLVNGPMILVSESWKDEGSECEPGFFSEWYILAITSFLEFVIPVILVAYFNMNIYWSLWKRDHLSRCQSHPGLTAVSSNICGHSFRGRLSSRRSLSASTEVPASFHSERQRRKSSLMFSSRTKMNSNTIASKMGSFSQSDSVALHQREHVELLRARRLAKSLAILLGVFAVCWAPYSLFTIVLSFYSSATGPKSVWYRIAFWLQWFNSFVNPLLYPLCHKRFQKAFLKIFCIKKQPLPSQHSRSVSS
# note: exactly 300 nM is not below, so it is 0 (no); use 1 (yes) for Ki strictly under it

Lookup: I'd appreciate it if you could check whether `Cc1cccc2cc(C(=O)N3CCNCC3)[nH]c12` has Ki smaller than 300 nM.
Found: 1 (yes)

Lookup: I'd appreciate it if you could check whether `CN[C@@H]1CCN(C(=O)c2cc3cccc(F)c3[nH]2)C1` has Ki smaller than 300 nM.
Found: 0 (no)

Lookup: I'd appreciate it if you could check whether `Cc1cc(Cl)cc2cc(C(=O)N3CCN(C)CC3)[nH]c12` has Ki smaller than 300 nM.
Found: 1 (yes)

Lookup: I'd appreciate it if you could check whether `CN1CCN(C(=O)c2cc3cc(F)ccc3[nH]2)CC1` has Ki smaller than 300 nM.
Found: 1 (yes)

Lookup: I'd appreciate it if you could check whether `CN1CCN(C(=O)c2cc3c(F)c(Cl)ccc3[nH]2)CC1` has Ki smaller than 300 nM.
Found: 1 (yes)

Lookup: I'd appreciate it if you could check whether `O=C(c1cc2cc(Cl)cc(F)c2[nH]1)N1CCNCC1` has Ki smaller than 300 nM.
Found: 1 (yes)

Lookup: I'd appreciate it if you could check whether `COc1cccc2cc(C(=O)N3CCN(C)CC3)[nH]c12` has Ki smaller than 300 nM.
Found: 0 (no)

Lookup: I'd appreciate it if you could check whether `CN1CCN(C(=O)c2cc3c(N)cccc3[nH]2)CC1` has Ki smaller than 300 nM.
Found: 0 (no)

Lookup: I'd appreciate it if you could check whether `CN1CCN(C(=O)c2cc3c(O)cccc3[nH]2)CC1` has Ki smaller than 300 nM.
Found: 1 (yes)

Lookup: I'd appreciate it if you could check whether `COc1cccc2[nH]c(C(=O)N3CCN(C)CC3)cc12` has Ki smaller than 300 nM.
Found: 0 (no)

Lookup: I'd appreciate it if you could check whether `Cc1cccc2cc(C(=O)N3CCN(C)CC3)[nH]c12` has Ki smaller than 300 nM.
Found: 1 (yes)

Lookup: I'd appreciate it if you could check whether `CNC1CN(C(=O)c2cc3cc(Cl)cc(F)c3[nH]2)C1` has Ki smaller than 300 nM.
Found: 1 (yes)

Lookup: I'd appreciate it if you could check whether `Cc1cc(Cl)cc2cc(C(=O)N3CC(N4CCCC4)C3)[nH]c12` has Ki smaller than 300 nM.
Found: 1 (yes)

Lookup: I'd appreciate it if you could check whether `CN1CCCN(C(=O)c2cc3ccccc3[nH]2)CC1` has Ki smaller than 300 nM.
Found: 0 (no)

Lookup: I'd appreciate it if you could check whether `CN1CCCN(C(=O)c2cc3cc(Cl)cc(F)c3[nH]2)CC1` has Ki smaller than 300 nM.
Found: 1 (yes)

Lookup: I'd appreciate it if you could check whether `CNC1CN(C(=O)c2cc3cccc(F)c3[nH]2)C1` has Ki smaller than 300 nM.
Found: 0 (no)

Lookup: I'd appreciate it if you could check whether `CC(=O)c1ccc2[nH]c(C(=O)N3CCN(C)CC3)cc2c1` has Ki smaller than 300 nM.
Found: 0 (no)

Lookup: I'd appreciate it if you could check whether `CN1CCN(C(=O)c2cc3cc(O)ccc3[nH]2)CC1` has Ki smaller than 300 nM.
Found: 1 (yes)

Lookup: I'd appreciate it if you could check whether `CN1CCN(C(=O)c2cc3cnccc3[nH]2)CC1` has Ki smaller than 300 nM.
Found: 0 (no)

Lookup: I'd appreciate it if you could check whether `Cc1cccc2cc(C(=O)N3CC(N4CCCC4)C3)[nH]c12` has Ki smaller than 300 nM.
Found: 1 (yes)

Lookup: I'd appreciate it if you could check whether `Cc1ccc(F)c2cc(C(=O)N3CCN(C)CC3)[nH]c12` has Ki smaller than 300 nM.
Found: 1 (yes)

Lookup: I'd appreciate it if you could check whether `CN1CCN(C(=O)c2cc3cc(Cl)cc(N)c3[nH]2)CC1` has Ki smaller than 300 nM.
Found: 1 (yes)

Lookup: I'd appreciate it if you could check whether `CN1CCN(C(=O)c2cc3c(Cl)cccc3[nH]2)CC1` has Ki smaller than 300 nM.
Found: 1 (yes)

Lookup: I'd appreciate it if you could check whether `CN1CCN(C(=O)c2cc3c(Cl)c(Cl)ccc3[nH]2)CC1` has Ki smaller than 300 nM.
Found: 1 (yes)

Lookup: I'd appreciate it if you could check whether `COc1ccc2cc(C(=O)N3CCN(C)CC3)[nH]c2c1` has Ki smaller than 300 nM.
Found: 0 (no)
